System: NCI/ADR-RES ovarian
Assay: NCI-60 one-dose screen, 48 h (100 = growth as untreated, 0 = no growth, -100 = all killed)
Settings: 10 µM unless noted
The panel holds about 83,000 compounds, 20% with a hit somewhere; the sample as a whole holds those more often.
Provide the recorded growth for the entries that follow.
The figure you give is taken to be in %; do not add the unit.

INPUT: Fetch value of growth on NCI/ADR-RES ovarian for CCOC(=O)c1cc(C(=O)c2ccc(OC)cc2)n2ccc(/C=C/c3cc[n+](CC(=O)c4ccc(OC)cc4)cc3)cc12 .
OUTPUT: 98.1

INPUT: Fetch value of growth on NCI/ADR-RES ovarian for Cc1nc2sccn2c1-c1nc2sccn2c1/C=C1/C(=O)Nc2ccccc21 .
OUTPUT: 47.9

INPUT: Fetch value of growth on NCI/ADR-RES ovarian for COc1ccc(C(=O)c2cc(C)c(OC)c(C)c2)c(OC)c1N(C(=O)CCl)C(=O)CCl .
OUTPUT: -37.1

INPUT: Fetch value of growth on NCI/ADR-RES ovarian for O=S(=O)(Nc1ccc(-n2cnc3cc(-c4ccc(O)cc4)ccc32)cc1)c1ccccc1 .
OUTPUT: 91.9

INPUT: Fetch value of growth on NCI/ADR-RES ovarian for Oc1ccc(C2c3ccccc3Oc3ccccc32)c2cccnc12 .
OUTPUT: 7.48

INPUT: Fetch value of growth on NCI/ADR-RES ovarian for O=[N+]([O-])c1cc(Br)c2cccc3c2c1CC3 .
OUTPUT: 114

INPUT: Fetch value of growth on NCI/ADR-RES ovarian for Cc1nc2ccc(Cl)cn2c1-c1nnc(SCc2ccc([N+](=O)[O-])cc2)o1 .
OUTPUT: 36.1

INPUT: Fetch value of growth on NCI/ADR-RES ovarian for C=C1C(=O)O[C@H]2[C@H]1CC/C(CNC(=O)c1cccc3ccccc13)=C\CC[C@@]1(C)O[C@@H]21 .
OUTPUT: 80.9

INPUT: Fetch value of growth on NCI/ADR-RES ovarian for Cn1nc(CC#N)c2c(=N)n(N)cnc21 .
OUTPUT: 113

INPUT: Fetch value of growth on NCI/ADR-RES ovarian for CCOC(=O)CCN(CC(C)C)C(=S)Nc1ccccc1 .
OUTPUT: 105

* * *

System: SF-268 CNS
Experiment: NCI-60 one-dose screen, 48 h
Conditions: 10 µM unless noted
Compounds without any hit were thinned out: in the full panel of roughly 83,000, 20% have a hit. The source made the active and inactive calls. The calls were made as follows: active = growth percent below 10; inactive = the rest.
Returns: one label drawn from yes (1) (active), no (0) (inactive)

INPUT: Which outcome was entered for the compound Oc1ccc(OCCOc2ccc(O)cc2)cc1 in this test?
OUTPUT: no (0)

INPUT: Which outcome was entered for the compound O=C1c2ccc3c4c(ccc(c24)C(=O)N1CCCNCc1ccccc1Cl)C(=O)N(CCCNCc1ccccc1Cl)C3=O in this test?
OUTPUT: yes (1)

INPUT: Which outcome was entered for the compound C=C(CBr)[C@@H]1CC[C@]2(COC(C)=O)CC[C@]3(C)[C@H](CC[C@@H]4[C@@]5(C)CCCNC(C)(C)[C@@H]5CC[C@]43C)[C@@H]12 in this test?
OUTPUT: no (0)

INPUT: Which outcome was entered for the compound COc1cc2c(=O)n(CCN)c3c4cc5c(cc4ccc3c2cc1OC)OCO5 in this test?
OUTPUT: yes (1)

INPUT: Which outcome was entered for the compound Cc1nc2sccn2c1-c1cn2ccsc2n1 in this test?
OUTPUT: no (0)

INPUT: Which outcome was entered for the compound O=C(O)c1ccc(-c2nn(-c3ccc(C(F)(F)F)cc3)cc2CNc2ccc(Oc3ccccc3)cc2)cc1 in this test?
OUTPUT: no (0)

INPUT: Which outcome was entered for the compound CCCCCC(=O)Oc1ccc(/C(=C(\C)c2ccccc2)c2ccc(OCCN3CCCCC3)cc2)cc1 in this test?
OUTPUT: no (0)

INPUT: Which outcome was entered for the compound COc1cc(NC(C)CCCNC(=O)CCC(=O)NCCCNCCCCCCCCCCNCCCNC(=O)CCC(=O)NCCCC(C)Nc2cc(OC)cc3cccnc23)c2ncccc2c1 (configuration not stated) in this test?
OUTPUT: no (0)

INPUT: Which outcome was entered for the compound N#CC1=C(N)Oc2c(cnn2-c2ccc([N+](=O)[O-])cc2[N+](=O)[O-])C1c1ccccc1 (configuration not stated) in this test?
OUTPUT: no (0)

INPUT: Which outcome was entered for the compound Cc1ccc(-c2[nH][nH]c(=O)c2-c2nc3ccccc3s2)cc1 in this test?
OUTPUT: no (0)

INPUT: Which outcome was entered for the compound COc1cccc(-c2cc(C(=O)Nc3ccc(/C=C/c4ccc(OC5CCN(C)CC5)cc4)cc3)ccc2OC)c1 in this test?
OUTPUT: yes (1)

INPUT: Which outcome was entered for the compound CC(=O)CCC(=O)OCc1cc(=O)c(O)co1 in this test?
OUTPUT: no (0)

INPUT: Which outcome was entered for the compound CNC(=O)c1cccc(Cn2nc(C)c(NC(=O)c3ccc(COc4ccc(C(F)(F)F)cc4C)cc3)c2C)n1 in this test?
OUTPUT: no (0)

INPUT: Which outcome was entered for the compound Cc1cc2nc3c4cccc(O)c4n(CCN(C)C)c3nc2cc1C in this test?
OUTPUT: no (0)

INPUT: Which outcome was entered for the compound CN1CCN(c2ccc(NC3=C(Cl)C(=O)c4ncccc4C3=O)cc2C(F)(F)F)CC1 in this test?
OUTPUT: no (0)

INPUT: Which outcome was entered for the compound C#CCNC(=O)c1cccc2c1cc(C)n2-c1nc2c(c(NCc3ccccc3)n1)CCCC2 in this test?
OUTPUT: yes (1)

INPUT: Which outcome was entered for the compound CCCCCN1C=C/C(=C\C(=O)N(C)c2ccc(OC(F)(F)F)cc2)c2ccccc21 in this test?
OUTPUT: no (0)

INPUT: Which outcome was entered for the compound Cc1cc2nc3c4ccc(Br)cc4n(CCN(C)C)c3nc2cc1C in this test?
OUTPUT: no (0)

INPUT: Which outcome was entered for the compound CNC(=O)c1cccc(Cn2nc(C)c(NC(=O)c3ccc(COc4ccc(C(F)(F)F)cc4C)cc3)c2C)c1 in this test?
OUTPUT: no (0)

INPUT: Which outcome was entered for the compound COc1cccc(C(=O)NNc2nc(Cl)nc(N3CCN(C(c4ccccc4)c4ccccc4)CC3)n2)c1 in this test?
OUTPUT: no (0)

INPUT: Which outcome was entered for the compound CCCN1[C@@H]2CC[C@H]1/C(=C\c1ccc(OC)c(OC)c1)C(=O)/C2=C/c1ccc(OC)c(OC)c1 in this test?
OUTPUT: no (0)

INPUT: Which outcome was entered for the compound O=C(Nc1cccc(C(=O)N2CCc3ccc(Cl)cc32)c1)c1ccco1 in this test?
OUTPUT: no (0)

INPUT: Which outcome was entered for the compound COc1ccc(C(C)=O)c(OC)c1 in this test?
OUTPUT: no (0)

INPUT: Which outcome was entered for the compound N#CC1=C(/N=C/c2ccccc2)Oc2c(ccc3ccccc23)C1c1ccc([N+](=O)[O-])cc1 (configuration not stated) in this test?
OUTPUT: no (0)

INPUT: Which outcome was entered for the compound Nc1ccccc1NC(=O)c1ccc(-n2nc(-c3ccccc3)c3ccccc32)cc1 in this test?
OUTPUT: no (0)

INPUT: Which outcome was entered for the compound COc1cccc2c1c1nc3cc(C)c(C)cc3nc1n2CCN(C)C in this test?
OUTPUT: no (0)

INPUT: Which outcome was entered for the compound c1ccc2cc(Cn3c(-c4cccc5ccccc45)[n+](Cc4ccc5ccccc5c4)c4c5ccccc5c5ccccc5c43)ccc2c1 in this test?
OUTPUT: yes (1)

INPUT: Which outcome was entered for the compound COc1ccc(OC)c(CCn2cncc2-c2c[nH]c3ccccc23)c1 in this test?
OUTPUT: no (0)

INPUT: Which outcome was entered for the compound CC1(C)CC[C@]23CC[C@]4(C)[C@H](CC[C@@H]5[C@@]6(C)CCCNC(C)(C)[C@@H]6CC[C@]54C)[C@H]2[C@H]1OC3 in this test?
OUTPUT: no (0)

INPUT: Which outcome was entered for the compound COc1cc2c(c(O)c1Cl)C(=O)c1c(O)cc(C[C@H](C)O)cc1[C@H]2[C@H]1c2cc(C[C@H](C)O)cc(O)c2C(=O)c2c1cc(OC)c(Cl)c2O in this test?
OUTPUT: no (0)

INPUT: Which outcome was entered for the compound COc1ccc(N2CCN(c3ccc(NC4=C(Cl)C(=O)c5ncccc5C4=O)cc3)CC2)cc1 in this test?
OUTPUT: no (0)

INPUT: Which outcome was entered for the compound Cn1ccnc1C(=O)/C=C/c1ccc(CC(=O)NC2CCCCC2)cc1 in this test?
OUTPUT: no (0)

INPUT: Which outcome was entered for the compound C[C@H](c1nc2ccc(N)cc2[nH]1)[C@H]1CC[C@H]2[C@@H]3CCC4=CC(=O)CC[C@]4(C)[C@H]3CC[C@]12C in this test?
OUTPUT: no (0)

INPUT: Which outcome was entered for the compound COc1ccc(C/C(=C(\C)c2ccc(OCCN3CCCC3)cc2)c2ccc(OCCN3CCCC3)cc2)cc1 in this test?
OUTPUT: no (0)

INPUT: Which outcome was entered for the compound CCCCOc1ccc(/C(C)=N/Nc2cc(C)nc3ccc(Br)cc23)cc1 in this test?
OUTPUT: no (0)

INPUT: Which outcome was entered for the compound O=C(/C=C(O)/C=C/c1ccc(SC(F)(F)F)cc1)/C=C/c1ccc(SC(F)(F)F)cc1 in this test?
OUTPUT: no (0)

INPUT: Which outcome was entered for the compound CC(=O)Oc1ccc(/C=N/NC(N)=S)nc1 in this test?
OUTPUT: no (0)

Origin of measurements: PubChem BioAssay (NCI)
